- Tested on: diamondback moth (Plutella xylostella)
- Experiment Description: Test Example 3: controlling effect on diamondback moth by soil treatment for cabbage (planting-hole granules)
- Assay type: in vivo
- Test Parameters: 20 mgAI/plant granules in planting hole, 18 days after trans-planting
- Experimental: Controlling effect on diamondback moth (Plutella xylostella) by soil treatment for cabbage At the time of trans-planting cabbage plants (cultivar: YR Seitoku), planting holes were treated with granules prepared from the compound listed in Table 1 or 2 according to Formulation Example. Diamondback moths parasitic on the cabbage plants were counted on predetermined days after the trans-planting. In Table 4, mgAI/plant denotes the dosage (mg) of the active ingredient per plant.
Assay Readout: Number of parasites/3 plants After 18 days (parasites/3 plants)
Give bare numbers, in parasites/3 plants.

Use these answered entries as a reference point.
[
  {
    "Compound": "Cc1cc(Br)ccc1NC(=O)c1cccc(I)c1C(=O)NC(C)(C)C[S+](C)[O-] (stereo not shown) [compound 28]",
    "Reported Measurement": 0
  },
  {
    "Compound": "CSCC(C)(C)NC(=O)c1c(I)cccc1C(=O)Nc1ccc(I)cc1C [compound 30]",
    "Reported Measurement": 0
  },
  {
    "Compound": "CSCC(C)NC(=O)c1cccc(I)c1C(=O)Nc1ccc(Cl)cc1C (stereo not shown) [A, reference compound]",
    "Reported Measurement": 8
  }
]

Turning to the following compound.
Query block: Recorded Number of parasites/3 plants After 18 days of Cc1cc(Cl)ccc1NC(=O)c1cccc(I)c1C(=O)NC(C)(C)C[S+](C)[O-] (stereo not shown) [compound 25] , please.
Result block: 0

Origin of measurements: patent US20040116299A1
